Hey, just so you know, these numbers are from paper PMC6271220.

# target-under-test: EGFR (Homo sapiens, UniProt P00533)
# Construct: EGFR cytoplasmic domain (EGFR-CD, amino acids 645–1186); (His)6 (N)
# Sequence (P00533 669-1210): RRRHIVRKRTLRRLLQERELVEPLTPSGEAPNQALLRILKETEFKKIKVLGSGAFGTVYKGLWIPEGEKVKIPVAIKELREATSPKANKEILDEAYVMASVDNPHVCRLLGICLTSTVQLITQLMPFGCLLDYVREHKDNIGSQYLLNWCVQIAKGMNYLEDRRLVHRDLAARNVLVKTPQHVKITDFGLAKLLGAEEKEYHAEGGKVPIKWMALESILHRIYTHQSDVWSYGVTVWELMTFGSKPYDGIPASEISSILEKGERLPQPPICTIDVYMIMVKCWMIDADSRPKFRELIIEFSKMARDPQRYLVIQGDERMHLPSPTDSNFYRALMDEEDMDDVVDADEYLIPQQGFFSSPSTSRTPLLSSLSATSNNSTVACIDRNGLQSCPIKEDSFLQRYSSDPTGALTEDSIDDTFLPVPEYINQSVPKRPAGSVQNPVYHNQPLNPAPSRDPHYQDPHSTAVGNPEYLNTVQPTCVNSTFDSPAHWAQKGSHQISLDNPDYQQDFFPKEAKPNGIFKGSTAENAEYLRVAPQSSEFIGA
# assay-text: EGFR kinase autophosphorylation assay (DELFIA/time-resolved fluorometry)
# assay-conditions: in vitro EGFR enzyme inhibition
metric: IC50 (nM)
Response body: numeric value in nM, unit text excluded.

Sure, the documented IC50 for `CC1(C)[C@@H](O[C@@H]2O[C@H](C(=O)O)[C@@H](O)[C@H](O)[C@H]2O)CC[C@]2(C)[C@H]3C(=O)C=C4[C@H]5C[C@@](C)(C(=O)O)CC[C@]5(C)CC[C@@]4(C)[C@]3(C)CC[C@@H]12` is 28

Sure, the documented IC50 for `CC1(C)[C@@H](O[C@H]2O[C@H](C(=O)O)[C@@H](O)[C@H](O)[C@H]2O[C@@H]2O[C@H](C(=O)O)[C@@H](O)[C@H](O)[C@H]2O)CC[C@]2(C)[C@H]3C(=O)C=C4[C@@H]5C[C@@](C)(C(=O)O)CC[C@]5(C)CC[C@@]4(C)[C@]3(C)CC[C@@H]12` is 92

Sure, the documented IC50 for `CC1(C)[C@@H](O[C@@H]2O[C@H](C(=O)O)[C@@H](O)[C@H](O)[C@H]2O)CC[C@]2(C)[C@H]3C(=O)C=C4[C@@H]5C[C@@](C)(C(=O)O)CC[C@]5(C)CC[C@@]4(C)[C@]3(C)CC[C@@H]12` is 69

Sure, the documented IC50 for CC1(C(=O)O)CCC2(C)CCC3(C)C(=CC(=O)C4C5(C)CCC(OC6OC(C(=O)O)C(O)C(O)C6OC6OC(C(=O)O)C(O)C(O)C6O)C(C)(C)C5CCC43C)C2C1 (stereo not shown) is 81

----------
# Tested on: S180 (sarcoma tumer cell line)
# assay-text: In vivo tumor xenograft model, S180 tumor-bearing mice
# Design: species or system Kunming mice
# assay-conditions: 60 mg/kg/day oral gavage, ten days
metric: Body weight End (g)
Response body: numeric value in g, unit text excluded.

Log: S180 (sarcoma tumer cell line), molecule `CC1(C)[C@@H](O[C@@H]2O[C@H](C(=O)O)[C@@H](O)[C@H](O)[C@H]2O)CC[C@]2(C)[C@H]3C(=O)C=C4[C@H]5C[C@@](C)(C(=O)O)CC[C@]5(C)CC[C@@]4(C)[C@]3(C)CC[C@@H]12` , Body weight End = 25.25

Log: S180 (sarcoma tumer cell line), molecule `CC1(C)[C@@H](O[C@H]2O[C@H](C(=O)O)[C@@H](O)[C@H](O)[C@H]2O[C@@H]2O[C@H](C(=O)O)[C@@H](O)[C@H](O)[C@H]2O)CC[C@]2(C)[C@H]3C(=O)C=C4[C@@H]5C[C@@](C)(C(=O)O)CC[C@]5(C)CC[C@@]4(C)[C@]3(C)CC[C@@H]12` , Body weight End = 24.48

Log: S180 (sarcoma tumer cell line), molecule `CC1(C)[C@@H](O[C@@H]2O[C@H](C(=O)O)[C@@H](O)[C@H](O)[C@H]2O)CC[C@]2(C)[C@H]3C(=O)C=C4[C@@H]5C[C@@](C)(C(=O)O)CC[C@]5(C)CC[C@@]4(C)[C@]3(C)CC[C@@H]12` , Body weight End = 25.02

Log: S180 (sarcoma tumer cell line), molecule CC1(C(=O)O)CCC2(C)CCC3(C)C(=CC(=O)C4C5(C)CCC(OC6OC(C(=O)O)C(O)C(O)C6OC6OC(C(=O)O)C(O)C(O)C6O)C(C)(C)C5CCC43C)C2C1 (stereo not shown) , Body weight End = 25.20
